Biological target: Serine/threonine-protein kinase PLK1 (Homo sapiens) (UniProt P53350)
Sequence (P53350 whole entry, looked up, the tested form may be a part): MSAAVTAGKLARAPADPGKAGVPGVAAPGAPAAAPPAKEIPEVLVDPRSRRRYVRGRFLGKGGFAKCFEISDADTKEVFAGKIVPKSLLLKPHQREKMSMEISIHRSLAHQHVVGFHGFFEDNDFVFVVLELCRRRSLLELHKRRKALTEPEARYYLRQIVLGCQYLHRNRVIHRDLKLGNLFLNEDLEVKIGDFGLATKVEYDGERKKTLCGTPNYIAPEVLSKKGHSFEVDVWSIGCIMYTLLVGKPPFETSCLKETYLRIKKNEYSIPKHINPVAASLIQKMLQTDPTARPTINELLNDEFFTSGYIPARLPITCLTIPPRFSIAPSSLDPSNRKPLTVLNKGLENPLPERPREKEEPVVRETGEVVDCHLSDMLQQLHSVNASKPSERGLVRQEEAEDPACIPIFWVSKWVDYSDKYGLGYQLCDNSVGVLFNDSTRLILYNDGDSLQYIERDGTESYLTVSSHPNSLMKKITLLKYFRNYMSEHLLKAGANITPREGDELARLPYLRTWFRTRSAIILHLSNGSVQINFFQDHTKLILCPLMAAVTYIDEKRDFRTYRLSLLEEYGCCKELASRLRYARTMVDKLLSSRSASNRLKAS
Assay: qHTS for Inhibitors of PLK1-PDB (polo-like kinase 1 - polo-box domain): Primary Screen; also: series mostly up to about 57 µM; % is scaled to controls: 0 for no effect and ±100 for the full control effect; nearly all actives have a fitted effect of over 65% in size
Details: Plk1 PBD binding of FITC phosphopeptide, fluorescence polarization
Text: The polo-like kinase 1 (Plk1) is a member of a conserved subfamily of serine / threonine protein kinases that plays a pivotal roles in cell proliferation. It has a C-terminal non-catalytic region called the polo-box domain (PBD) that plays a crucial role in the subcellular localization of the Plk1. […] This project employed a fluorescence polarization (FP) assay using a FITC-conjugated phospho-9-mer (p-9-mer) peptide and purified human Plk1 PBD protein. […]
Hit rate of the full screen: of about 360,000 compounds, about 10,000 (2.8%) were called active. Not shown: some 4% with an inconclusive outcome. What follows is part of a selection rich in actives, with near analogues and random picks from the rest.
Field: max response, negative = inhibition. Provide a value for each of the molecules that follow.

Q) Can you share its max response, negative = inhibition? I mean this molecule: Cc1ccc(NC(=O)Nc2ccccc2)c(Br)c1
A) -8.61% (inactive)

Q) Can you share its max response, negative = inhibition? I mean this molecule: CCN(CC)C(=O)C1=C(C)N(Cc2ccc(C(C)(C)C)cc2)C(=O)C(CC(=O)NCc2cccc3ccccc23)C1 (stereo not given)
A) -4.44% (inactive)

Q) Can you share its max response, negative = inhibition? I mean this molecule: COc1ccc(Sc2ccc(NC(=O)c3cccc(Cl)c3)cc2C#N)cc1
A) 2.16% (inactive)

Q) Can you share its max response, negative = inhibition? I mean this molecule: CS(=O)(=O)c1ccc(Cl)c(NC(=O)COC(=O)c2ncc(Cl)c(Cl)c2Cl)c1
A) -10.8% (inactive)

Q) Can you share its max response, negative = inhibition? I mean this molecule: O=C(COC(=O)c1ccccc1)Nc1cccc(S(=O)(=O)N2CCOCC2)c1
A) 10.6% (inactive)

Q) Can you share its max response, negative = inhibition? I mean this molecule: CN1OC[C@@H]2CN(C(=O)C(C)(C)C)[C@H](c3ccc(-n4ccnc4)cc3)C[C@@H]21
A) -0.5% (inactive)

Q) Can you share its max response, negative = inhibition? I mean this molecule: CC(C)Oc1ccc(CCc2n[nH]c(=S)n2Cc2ccccc2)cc1
A) -8.99% (inactive)

Q) Can you share its max response, negative = inhibition? I mean this molecule: O=C(CSc1ccccc1)Nc1cccc(S(=O)(=O)N2CCCCC2)c1
A) 3.72% (inactive)

Q) Can you share its max response, negative = inhibition? I mean this molecule: COc1cc(-c2n[nH]c(=S)n2Cc2ccccc2)cc(OC)c1OC
A) -6.45% (inactive)

Q) Can you share its max response, negative = inhibition? I mean this molecule: COc1ccc(C2=Nc3ccccc3NC(=O)C2N(C(=O)c2cc3ccccc3[nH]2)c2ccccc2)cc1 (stereo not given)
A) 5.46% (inactive)

* * *

target: Serine/threonine-protein kinase PLK1 (Homo sapiens); experiment: qHTS for Inhibitors of PLK1-PDB (polo-like kinase 1 - polo-box domain): Primary Screen; settings: Plk1 PBD binding of FITC phosphopeptide, fluorescence polarization; also: series mostly up to about 57 µM; % is scaled to controls: 0 for no effect and ±100 for the full control effect; nearly all actives have a fitted effect of over 65% in size
Screen size: about 360,000 compounds; about 10,000 (2.8%) were called active. Another 4% or so got no clear call; they are omitted. The sample holds actives, similar compounds and a random draw of the others, so the mix is not that of the screen.
Measured metric: max response, negative = inhibition (%)
Report only the number, with the unit % understood.

Q) What reported max response, negative = inhibition corresponds to c1ccc(Cn2nnc3c(NCC4CC4)ncnc32)cc1 on Serine/threonine-protein kinase PLK1 (Homo sapiens)?
A) -24.2

Q) What reported max response, negative = inhibition corresponds to O=C1OCCOC2CCCc3oc(-c4ccccc4)c1c32 (stereo unspecified) on Serine/threonine-protein kinase PLK1 (Homo sapiens)?
A) -1.47

Q) What reported max response, negative = inhibition corresponds to C#CCN1C(=O)C(O)(CC(=O)c2cc(OC)ccc2OC)c2ccccc21 (stereo unspecified) on Serine/threonine-protein kinase PLK1 (Homo sapiens)?
A) -9.34

Q) What reported max response, negative = inhibition corresponds to CCOC(=O)N1CCN(S(=O)(=O)c2ccc(-n3cnnn3)cc2)CC1 on Serine/threonine-protein kinase PLK1 (Homo sapiens)?
A) -22.3

Q) What reported max response, negative = inhibition corresponds to NC(c1csc(NC(=O)Nc2cccc(C(F)(F)F)c2)n1)C1CCCCC1 (stereo unspecified) on Serine/threonine-protein kinase PLK1 (Homo sapiens)?
A) -5.95

Q) What reported max response, negative = inhibition corresponds to CCn1c(SCC(=O)N/N=C/c2ccncc2)nc2ccccc21 on Serine/threonine-protein kinase PLK1 (Homo sapiens)?
A) -2.87

Source of measurements: PubChem BioAssay AID720504
